- Assay Details: LD50 (acute toxicity), mouse
- Test Parameters: in vivo, po, Male, p. o.
Reported Property: LD50

What does the record list as LD50 for CC1CNc2c(cccc2S(=O)(=O)N[C@@H](CCCNC(=N)N)C(=O)N2CC[C@@H](C)C[C@@H]2C(=O)O)C1.O (mixture of isomers) [argatroban] ?
> 15000 mg/kg

----------
- Assay Details: LD50 (acute toxicity), rat
- Test Parameters: in vivo, ip, Female, i. p.
Reported Property: LD50
Answer with the value and then the unit.

What does the record list as LD50 for CC1CNc2c(cccc2S(=O)(=O)N[C@@H](CCCNC(=N)N)C(=O)N2CC[C@@H](C)C[C@@H]2C(=O)O)C1.O (mixture of isomers) ?
409 mg/kg

----------
- Assay Details: LD50 (acute toxicity), rat
- Test Parameters: in vivo, ip, Male, i. p.
Reported Property: LD50 (mg/kg)
Write the number in mg/kg without appending the unit.

What does the record list as LD50 for CC1CNc2c(cccc2S(=O)(=O)N[C@@H](CCCNC(=N)N)C(=O)N2CC[C@@H](C)C[C@@H]2C(=O)O)C1.O (mixture of isomers) ?
320

----------
- Assay Details: LD50 (acute toxicity), dog
- Assay type: in vivo
- Test Parameters: in vivo, iv, Male, i. v.
Reported Property: LD50

What does the record list as LD50 for CC1CNc2c(cccc2S(=O)(=O)N[C@@H](CCCNC(=N)N)C(=O)N2CC[C@@H](C)C[C@@H]2C(=O)O)C1.O (mixture of isomers) ?
> 200 mg/kg

----------
- Assay Details: LD50 (acute toxicity), rat
- Test Parameters: in vivo, po, Female, p. o.
Reported Property: LD50

What does the record list as LD50 for CC1CNc2c(cccc2S(=O)(=O)N[C@@H](CCCNC(=N)N)C(=O)N2CC[C@@H](C)C[C@@H]2C(=O)O)C1.O (mixture of isomers) ?
> 15000 mg/kg

----------
- Assay Details: LD50 (acute toxicity), mouse
- Test Parameters: in vivo, po, Female, p. o.
Reported Property: LD50

What does the record list as LD50 for CC1CNc2c(cccc2S(=O)(=O)N[C@@H](CCCNC(=N)N)C(=O)N2CC[C@@H](C)C[C@@H]2C(=O)O)C1.O (mixture of isomers) ?
> 15000 mg/kg

----------
- Assay Details: LD50 (acute toxicity), mouse
- Test Parameters: in vivo, ip, Female, i. p.
Reported Property: LD50 (mg/kg)
Write the number in mg/kg without appending the unit.

What does the record list as LD50 for CC1CNc2c(cccc2S(=O)(=O)N[C@@H](CCCNC(=N)N)C(=O)N2CC[C@@H](C)C[C@@H]2C(=O)O)C1.O (mixture of isomers) ?
640

----------
- Assay Details: LD50 (acute toxicity), mouse
- Test Parameters: in vivo, iv, Male, i. v.
Reported Property: LD50

What does the record list as LD50 for CC1CNc2c(cccc2S(=O)(=O)N[C@@H](CCCNC(=N)N)C(=O)N2CC[C@@H](C)C[C@@H]2C(=O)O)C1.O (mixture of isomers) [argatroban] ?
> 81 mg/kg

----------
- Assay Details: LD50 (acute toxicity), rat
- Test Parameters: in vivo, iv, Male, i. v.
Reported Property: LD50

What does the record list as LD50 for CC1CNc2c(cccc2S(=O)(=O)N[C@@H](CCCNC(=N)N)C(=O)N2CC[C@@H](C)C[C@@H]2C(=O)O)C1.O (mixture of isomers) ?
> 81 mg/kg
